// reported pKd for each item listed
# study_system: T1, Recombinant human Dkk-1 (R&D Systems cat no. 1096-DK/CF), 10xHis tag at the C terminal (human, UniProt O94907 32-266)
# T1 construct: the actual N-terminus of the purified protein is marked in bold italic after residue 30, but the mark is an image lost in the text; also called rhuDkk-1; hDkk-1
# T1 sequence: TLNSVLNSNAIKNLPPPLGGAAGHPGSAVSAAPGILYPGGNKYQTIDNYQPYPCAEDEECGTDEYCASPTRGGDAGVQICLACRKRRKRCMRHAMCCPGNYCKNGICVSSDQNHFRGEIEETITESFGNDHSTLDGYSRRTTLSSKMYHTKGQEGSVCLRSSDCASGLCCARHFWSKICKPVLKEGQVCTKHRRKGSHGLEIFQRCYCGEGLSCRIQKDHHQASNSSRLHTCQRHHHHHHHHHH
# measurement_description: theoretical: koff / estimated kon 1e6 1/Ms (SPR screening 37C)
Quick note: pKd values are minus log10 of concentrations in mol/L.

Sample records with pKd:
{"binder": "L2.1D12 (Fab, V domains shown, tested as Fab (E. coli lysate, screening mode); human kappa CL and IgG2 CH1 not included here) VH: EVQLVESGGGLVQPGGSLRLSCAASGFTFSSYAISWVRQAPGKGLEWVASVSGWFDTYYPDSVKGRFTISRDNAKNSLYLQMNSLRAEDTAVYYCATSLQNYAFDYWGQGTTVTVSS VL: EIVLTQSPATLSLSPGERATLSCRASESVDDFGISFMNWYQQKPGQAPRLLIYAASKQGSGIPARFSGSGSGTDFTLTISSLEPEDFAVYYCQQSKEVPPTFGGGTKVEIK", "pKd": 8.56}
{"binder": "L3.1H3 (Fab, V domains shown, tested as Fab (E. coli lysate, screening mode); human kappa CL and IgG2 CH1 not included here) VH: EVQLVESGGGLVQPGGSLRLSCAASGFTFSSYAISWVRQAPGKGLEWVASVSGWLHTYYPDSVKGRFTISRDNAKNSLYLQMNSLRAEDTAVYYCATSLENYAFDYWGQGTTVTVSS VL: EIVLTQSPATLSLSPGERATLSCRASESVDDFGISFINWYQQKPGQAPRLLIYAGSKQGSGIPARFSGSGSGTDFTLTISSLEPEDFAVYYCQQLKEVPPTFGGGTKVEIK", "pKd": 8.94}

Query binder follows.
Query string: Using the record for L2.1F11 (Fab, V domains shown, tested as Fab (E. coli lysate, screening mode); human kappa CL and IgG2 CH1 not included here) VH: EVQLVESGGGLVQPGGSLRLSCAASGFTFSSYAISWVRQAPGKGLEWVASVSGWLDTYYPDSVKGRFTISRDNAKNSLYLQMNSLRAEDTAVYYCATSLQNYAFDYWGQGTTVTVSS VL: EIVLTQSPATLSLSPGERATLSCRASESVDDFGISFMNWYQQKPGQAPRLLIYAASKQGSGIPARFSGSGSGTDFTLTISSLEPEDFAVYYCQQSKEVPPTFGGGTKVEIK , report its pKd.
Result string: 8.67
